Reported CK (% E2) values are given for each entry in this list.
# assayed target: human ERα (Homo sapiens)
# Construct: expressed in transfected cells; host or cells: HAECT-1 cells (immortalized human aortic endothelial cells) infected with Ad5-wt-hERα adenovirus
# test summary: Creatine kinase (CK) assay in ERα infected HAECT-1 cells
# Assay type: cell-based
# study conditions: efficacy relative to E2, value in parentheses after the EC50
Please answer using a numeric value trailed by its unit.

Look over these answered cases.
CC[C@@H]1c2cc(F)ccc2-c2ccccc2N1C(=O)c1ccc(O)cc1O [Example 22] :: 38%
C[C@@H]1c2ccccc2-c2ccc(F)cc2N1C(=O)c1ccc(O)cc1 (single isomer, unassigned) [Example 37] :: 20%

Please look at the following compound next.
Specify measured CK (% E2) for CC1c2cc(F)ccc2-c2ccc(F)cc2N1C(=O)c1ccc(O)cc1 (racemic) [Example 42] .
37%

----------
Each item that follows carries a reported pEC50.
# assayed target: human ERα (Homo sapiens, UniProt P03372)
# Sequence (P03372 whole entry): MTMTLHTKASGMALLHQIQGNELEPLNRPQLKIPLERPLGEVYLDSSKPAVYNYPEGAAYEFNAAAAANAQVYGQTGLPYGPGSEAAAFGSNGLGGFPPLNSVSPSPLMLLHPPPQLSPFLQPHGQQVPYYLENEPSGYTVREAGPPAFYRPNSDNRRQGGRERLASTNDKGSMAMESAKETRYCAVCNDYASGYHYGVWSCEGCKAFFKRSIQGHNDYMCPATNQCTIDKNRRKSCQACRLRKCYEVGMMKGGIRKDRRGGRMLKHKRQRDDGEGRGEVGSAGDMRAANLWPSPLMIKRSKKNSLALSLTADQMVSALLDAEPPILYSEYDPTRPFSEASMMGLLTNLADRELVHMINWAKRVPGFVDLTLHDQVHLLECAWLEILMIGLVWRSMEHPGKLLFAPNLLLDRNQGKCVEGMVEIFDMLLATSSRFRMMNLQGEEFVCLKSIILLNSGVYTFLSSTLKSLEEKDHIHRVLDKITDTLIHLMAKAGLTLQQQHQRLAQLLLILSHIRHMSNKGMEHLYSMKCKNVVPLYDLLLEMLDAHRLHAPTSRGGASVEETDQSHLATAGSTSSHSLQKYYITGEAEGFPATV
# test summary: Creatine kinase (CK) assay in ERα infected HAECT-1 cells
# study conditions: creatine kinase in lysate of ERα infected HAECT-1 cells
Here pEC50 is given on a logarithmic scale as minus log10 of the concentration in mol/L.

Worked set:
C[C@@H]1c2cc(F)ccc2-c2ccccc2N1C(=O)c1ccc(Cl)c(O)c1 [Example 11] :: 6.51
C[C@@H]1c2ccccc2-c2ccc(F)cc2N1C(=O)c1ccc(O)cc1O (single isomer, unassigned) [Example 40] :: 8.10
C[C@@H]1c2ccccc2-c2ccc(F)cc2N1C(=O)c1ccc(O)cc1 (single isomer, unassigned) [Example 37] :: 7.55

Specify pEC50 for CC1c2cc(F)ccc2-c2ccc(F)cc2N1C(=O)c1ccc(O)cc1 (racemic) [Example 42] , system human ERα (Homo sapiens, UniProt P03372).
7.05

Specify pEC50 for CC[C@@H]1c2cc(F)ccc2-c2ccccc2N1C(=O)c1ccc(O)cc1O [Example 22] , system human ERα (Homo sapiens, UniProt P03372).
8.52

Please report the measured pEC50 for C[C@@H]1c2ccccc2-c2ccc(Cl)cc2N1C(=O)c1ccc(O)cc1 [Example 28] tested on human ERα (Homo sapiens, UniProt P03372).
7.16

Recall the reported pEC50 of C[C@@H]1c2ccccc2-c2ccc(Cl)cc2N1C(=O)c1cccc(O)c1 [Example 25] when tested on human ERα (Homo sapiens, UniProt P03372).
6.85

----------
melting point: recorded values

CC1c2ccccc2-c2ccc(F)cc2N1C(=O)c1ccc(O)cc1 (racemic) [Example 36] :: 134.5 to 135 °C
CC1c2cc(F)ccc2-c2ccc(F)cc2N1C(=O)c1ccc(O)cc1 (racemic) [Example 42] :: 193 to 195 °C
C[C@H]1c2ccccc2-c2ccc(F)cc2N1C(=O)c1ccc(O)cc1O (single isomer, unassigned) [Example 41] :: 182 to 184 °C
C[C@@H]1c2cc(F)ccc2-c2ccccc2N1C(=O)c1cccc(O)c1 [Example 4] :: 162 °C
C[C@@H]1c2ccccc2-c2ccc(F)cc2N1C(=O)c1ccc(O)cc1 (single isomer, unassigned) [Example 37] :: 235.7 to 236.8 °C

Please give measured melting point of the following entry: CC1c2ccccc2-c2ccc(Cl)cc2N1C(=O)c1ccc(O)cc1 (racemic) [Example 27]
165 to 165.9 °C

Identify the reported melting point for the following entry. C[C@H]1c2cc(F)ccc2-c2ccc(F)cc2N1C(=O)c1ccc(O)cc1 (single isomer, unassigned) [Example 44]
135 to 138 °C

Report melting point, nothing else, for this compound: C[C@@H]1c2cc(F)ccc2-c2ccc(F)cc2N1C(=O)c1ccc(O)cc1 (single isomer, unassigned) [Example 43]
138 to 140 °C

Consider the compound CC1c2ccccc2-c2ccc(Cl)cc2N1C(=O)c1cccc(O)c1 (racemic) [Example 24] and give its recorded melting point.
176.2 to 177.9 °C

Input C[C@@H]1c2ccccc2-c2ccc(F)cc2N1C(=O)c1ccc(O)cc1O (single isomer, unassigned) [Example 40] , output reported melting point.
184 to 187 °C

Determine from records and report melting point for CC[C@@H]1c2cc(F)ccc2-c2ccccc2N1C(=O)c1ccc(O)cc1O [Example 22]
98 to 100 °C
